- assayDetails: Cytotoxicity against human HuH7 cells expressing chimeric gene encoding firefly luciferase and neomycin phosphotransferase assessed as cell viability after 72 hrs by cell titer-glo luminescent assay
- Type: cell-based, Huh-7
measureName: CC50 at 72 h (µM)
Give the number; µM is assumed, so skip it.

Some entries whose results are on file:
| compound | quantitativeReadout |
| --- | --- |
| CC(Oc1ccc([N+](=O)[O-])cc1)C(=O)N/N=C/c1ccccc1OC(=O)c1sc2ccccc2c1Cl (stereo not given) | 19 |
| COc1ccc(C(=O)Cc2ccc3ccccc3c2/C=N/NC(=O)COc2ccc([N+](=O)[O-])cc2)cc1 | 9 |
| O=C(COc1ccc([N+](=O)[O-])cc1)N/N=C/c1ccccc1OC(=O)c1sc2ccccc2c1Cl | 40 |

// next entry
**Query** Fill in CC50 at 72 h for record CCC(C)Oc1ccc(/N=N/C(=O)c2cc3cc([N+](=O)[O-])ccc3o2)cc1Br (stereo not given)
**Result** 36

----------
Catalogue of CC50 at 72 h values
- assayDetails: Cytotoxicity against human HuH7 cells expressing chimeric gene encoding firefly luciferase and neomycin phosphotransferase assessed as cell proliferation after 72 hrs by MTT assay
- Format: cell-based, Huh-7

Would you please look over these solved cases?
| compound | measureName | result |
| --- | --- | --- |
| CCC(C)Oc1ccc(/N=N/C(=O)c2cc3cc([N+](=O)[O-])ccc3o2)cc1Br (stereo unspecified) | CC50 at 72 h | 57 µM |
| COc1cc(/C=N/NC(=O)C(C)Oc2ccc([N+](=O)[O-])cc2)ccc1OC(=O)c1sc2ccccc2c1Cl (stereo unspecified) | CC50 at 72 h | > 125 µM |
| CC(Oc1ccc([N+](=O)[O-])cc1)C(=O)N/N=C/c1ccccc1OC(=O)c1sc2ccccc2c1Cl (stereo unspecified) | CC50 at 72 h | > 125 µM |
| COc1cc(/C=N/NC(=O)COc2ccc([N+](=O)[O-])cc2)ccc1OC(=O)c1sc2ccccc2c1Cl | CC50 at 72 h | > 125 µM |
| COc1cc(/C=N/NC(=O)c2cc3cc([N+](=O)[O-])ccc3o2)ccc1OCc1ccc([N+](=O)[O-])cc1 | CC50 at 72 h | > 125 µM |

Now for a further compound.
**Query** Please list CC50 at 72 h recorded for the compound CCCOc1ccc(C(=O)Oc2ccc(/C=N/NC(=O)COc3ccc([N+](=O)[O-])cc3)cc2OCC)cc1
**Result** > 125 µM

----------
- assayDetails: Selectivity index, ratio of CC50 for human HuH7 cells expressing chimeric gene encoding firefly luciferase and neomycin phosphotransferase by cell titer-glo luminescent cell viability assay to EC50 for HCV
- Set-up: species or system Huh-7
measureName: Ratio CC50/EC50

| molecule | Ratio CC50/EC50 |
| --- | --- |
| CCC(C)Oc1ccc(/N=N/C(=O)c2cc3cc([N+](=O)[O-])ccc3o2)cc1Br (stereo not given) | 2.6 |
| COc1ccc(C(=O)Cc2ccc3ccccc3c2/C=N/NC(=O)COc2ccc([N+](=O)[O-])cc2)cc1 | 1.1 |
| CC(Oc1ccc([N+](=O)[O-])cc1)C(=O)N/N=C/c1ccccc1OC(=O)c1sc2ccccc2c1Cl (stereo not given) | 1.5 |
| O=C(COc1ccc([N+](=O)[O-])cc1)N/N=C/c1ccccc1OC(=O)c1sc2ccccc2c1Cl | 2.1 |

Could you now look at the following molecule, please?
**Query** Read the entry COc1cc(/C=N/NC(=O)c2cc3cc([N+](=O)[O-])ccc3o2)ccc1OCc1ccc([N+](=O)[O-])cc1 and write its reported Ratio CC50/EC50.
**Result** >9.3
